assay.text: Bioavailability in dog
Assay type: ADME, organism-based, Canis lupus familiaris
condition.notes: in vivo
assay.readout: bioavailability (%)

| compound.structure.string | assay.readout | reported |
| --- | --- | --- |
| Cc1cc2ncc(-c3ccc4cc(CCN5CCC[C@H]5C)ccc4n3)c(C)n2n1 | bioavailability | 72 |
| Cc1nn(C)cc1-c1ccc2cc(CCN3CCC[C@H]3C)ccc2n1 | bioavailability | 77 |
